Test system: A549
assay-explanation: Antiproliferative activity against human A549 cells after 72 hrs by sulforhodamine B assay
Format: functional, cell-based
cond: A549, 72 h
pIC50: −log10 of the molar value.

# molecule, sign-qualifier, pIC50
measured = [
    ("CC(=O)Oc1cc2c(cc1C(C)C)C(=O)C=C1C(C)(C)CCCC12C (single isomer, unassigned)", "=", 4.57),
    ("Cc1ccc2cc(C(C)C)c(O)cc2c1CC[C@H]1OC(C)(C)OC1(C)C", "=", 4.63),
    ("Cc1ccc(/C=C(\\C(=O)O)C(C)C)c2c1CC[C@@H](C(C)(C)O)OC2=O", "<", 4.00),
    ("COc1cc2c(cc1C(C)C)C(=O)C=C1C(C)(C)CCCC12C (single isomer, unassigned)", "<", 4.00),
    ("CC(=O)Oc1cc2c(CC[C@H](O)C(C)(C)O)c(C)ccc2cc1C(C)C", "=", 4.30),
    ("CC(=O)Oc1cc2c(CC[C@@H](O)C(C)(C)O)c(C)ccc2cc1C(C)C", "=", 4.31),
    ("Cc1ccc2cc(C(C)C)c(O)cc2c1CC[C@@H]1OC(C)(C)OC1(C)C", "=", 4.58),
    ("CC(=O)Oc1cc2c(CCC=C(C)C)c(C)ccc2cc1C(C)C", "=", 4.59),
    ("CC(=O)Oc1cc2c(CC[C@@H]3OC(C)(C)OC3(C)C)c(C)ccc2cc1C(C)C", "=", 4.16),
    ("CC(=O)Oc1cc2c(CC[C@H]3OC(C)(C)OC3(C)C)c(C)ccc2cc1C(C)C", "=", 4.54),
    ("Cc1ccc(/C=C(\\C(=O)O)C(C)C)c2c1CC[C@H](C(C)(C)O)OC2=O", "<", 4.00),
]
